Origin of the recorded values: PubChem BioAssay

tested on: Inhibin beta A chain (activin A); assay: INHBA (activin A) binders on microarrays, primary screen, biochemical, small-molecule microarray, 635 nm fluorescence scan (AID 1107); conditions: small-molecule microarray binding, higher = more signal;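 also: mouse activin A protein probed at 4.33 µg/mL on printed slides; score merges bound-protein fluorescence near 667 nm with spot signal-to-noise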
Assign rule met whenever composite z-score does not fall below 0.6; assign rule not met whenever it does.

- molecule: "C=C(COC)/C(=C/C[C@@H](OC(C)=O)c1ccc(OCCO)cc1)c1cc(C(=O)OC)ccc1OC"
  answer.label: "rule met"
- molecule: "Cc1ccc(S[C@]2(C(=O)NC(C)C)CC(=O)N(Cc3ccccc3Cl)[C@@H]2c2ccc(CO)cc2I)cc1"
  answer.label: "rule met"
- molecule: "COCCOC(=O)N1C(=O)[C@@]2(c3cc(C#CCCO)ccc31)[C@H](C(=O)N1CCN(c3ncccn3)CC1)[C@H]1C(=O)O[C@H](c3ccccc3)[C@H](c3ccccc3)N1[C@@H]2c1ccccc1OCCO"
  answer.label: "rule not met"
- molecule: "C#CCN(Cc1ccccc1Br)C(/C=C/c1ccccc1)CO (centres undefined)"
  answer.label: "rule met"
- molecule: "C=CCNC(=O)[C@H]1[C@@H]2C(=O)O[C@@H](c3ccccc3)[C@@H](c3ccccc3)N2[C@@H](c2ccc(OCCO)cc2)[C@]12C(=O)N(C(=O)OCCOC)c1ccccc12"
  answer.label: "rule not met"
- molecule: "COCCOC(=O)N1C(=O)[C@@]2(c3cc(C#CC4=CCCCC4)ccc31)[C@H](C(=O)Nc1nc3ccccc3s1)[C@H]1C(=O)O[C@H](c3ccccc3)[C@H](c3ccccc3)N1[C@@H]2c1ccccc1OCCO"
  answer.label: "rule met"
- molecule: "Cc1ccc(S[C@]2(C(=O)NC3CC3)CC(=O)N(C3Cc4ccccc4C3)[C@@H]2c2ccc(CO)cc2)cc1"
  answer.label: "rule not met"
- molecule: "C=CC[C@]1(C(=O)NCCCOC)N=C(c2ccc(OCCCO)cc2)O[C@H]1c1ccccc1N=[N+]=[N-]"
  answer.label: "rule met"
- molecule: "COC(=O)c1c(CC[C@@H](CO)NC(=O)N2CCC[C@H]2Cn2cc(-c3ccccn3)nn2)oc(C(C)=O)c1C(=O)OC"
  answer.label: "rule not met"
- molecule: "CC(CO)N1C(=O)[C@@H]2C3C(=O)OCCC/C=C\\[C@H]3OC23C=CCN(c2ccc4ccccc4c2)C(=O)[C@@H]13 (some centres undefined)"
  answer.label: "rule not met"
- molecule: "COc1ccc([Si](C)(C)[C@H]2[C@H](CC(=O)N3CCC[C@H]3CO)O[C@@]3(C(=O)N(Cc4cccc(N5C(=O)c6cccc7cccc5c67)c4)c4ccccc43)[C@@H]2C)cc1"
  answer.label: "rule not met"
- molecule: "O=C1NC(=O)C2C1C=CC(C(O)c1ccccc1)N2Nc1ccc(Cl)cc1Cl (centres undefined)"
  answer.label: "rule met"
- molecule: "CCOC(=O)C1=CCC(c2ccc(C)cc2)N(S(=O)(=O)c2ccc(C)cc2)C1 (centres undefined)"
  answer.label: "rule met"

====

target: Dickkopf-related protein 1 (Homo sapiens) (UniProt O94907); assay: DKK1 binders on small-molecule microarrays, primary screen, biochemical, small-molecule microarray, 635 nm fluorescence scan (AID 1106); conditions: DKK1 binding, higher = more signal;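 also: score merges emission near 667 nm with signal to noise over three replicate slides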
Sequence (O94907 whole entry, looked up): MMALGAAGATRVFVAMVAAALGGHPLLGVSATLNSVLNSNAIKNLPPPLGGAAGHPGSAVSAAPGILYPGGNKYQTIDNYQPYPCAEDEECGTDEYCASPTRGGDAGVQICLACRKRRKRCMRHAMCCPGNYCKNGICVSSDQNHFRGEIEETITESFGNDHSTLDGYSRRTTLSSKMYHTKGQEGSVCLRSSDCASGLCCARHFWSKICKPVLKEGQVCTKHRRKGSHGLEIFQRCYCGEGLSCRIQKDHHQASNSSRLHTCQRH

- molecule: "COC(=O)C=C(CC(O)c1cccc(Cl)c1)OC (stereo not drawn)"
  composite z-score: -0.186
- molecule: "COCCCNC(=O)C1N=C(c2ccc(OCCCO)cc2)N(c2ccccc2)O1 (stereo not drawn)"
  composite z-score: 0.383
- molecule: "COC(=O)[C@@]1(Cc2ccc(OC)cc2)[C@H]2c3cc(C(=O)N(C)C)n(CCN4CNCC4=O)c3C[C@H]2CN1C(=O)c1ccccc1"
  composite z-score: -0.812
- molecule: "O=C1NC(=O)C2C1C=CC(C(O)Cc1ccccc1)N2Nc1ccc(Cl)cc1Cl (stereo not drawn)"
  composite z-score: -1.18
- molecule: "O=C1c2ccccc2[C@](Cc2ccccc2I)(C(=O)NC2CC2)[C@H](c2ccc(CO)cc2)N1C1CCCCC1"
  composite z-score: 0.529
- molecule: "C#CCN(CC1=CCCCC1)[C@H](c1ccccc1Br)[C@@H](O)Cc1ccccc1"
  composite z-score: -1.07
- molecule: "[N-]=[N+]=NCc1ccccc1[C@@H]1OC(c2ccc(OCCCO)cc2)=N[C@]1(Cc1ccccc1N=[N+]=[N-])C(=O)N1CCOCC1"
  composite z-score: 0.231
- molecule: "CCOC(=O)C[C@H]1[C@H](OC(=O)Cc2ccc3c(c2)OCO3)[C@@H](NC(=O)c2ccc(-c3ccccc3)cc2)c2cc(OCCCO)ccc2N1C(=O)c1ccc2ccccc2n1"
  composite z-score: 0.434

====

biological target: Dihydroorotate dehydrogenase (quinone), mitochondrial (Plasmodium falciparum (isolate 3D7)) (UniProt Q08210); assay: PfDHODH enzyme inhibitors, primary screen, biochemical, C-terminal His tag, absorbance 600 nm (AID 1175); conditions: DCIP absorbance 600 nm, higher = more signal, called active from +8 up or from −8 down;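 also: recombinant parasite enzyme with a five histidine tag at its C terminus; test concentration not given here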
Sequence (Q08210 whole entry, looked up): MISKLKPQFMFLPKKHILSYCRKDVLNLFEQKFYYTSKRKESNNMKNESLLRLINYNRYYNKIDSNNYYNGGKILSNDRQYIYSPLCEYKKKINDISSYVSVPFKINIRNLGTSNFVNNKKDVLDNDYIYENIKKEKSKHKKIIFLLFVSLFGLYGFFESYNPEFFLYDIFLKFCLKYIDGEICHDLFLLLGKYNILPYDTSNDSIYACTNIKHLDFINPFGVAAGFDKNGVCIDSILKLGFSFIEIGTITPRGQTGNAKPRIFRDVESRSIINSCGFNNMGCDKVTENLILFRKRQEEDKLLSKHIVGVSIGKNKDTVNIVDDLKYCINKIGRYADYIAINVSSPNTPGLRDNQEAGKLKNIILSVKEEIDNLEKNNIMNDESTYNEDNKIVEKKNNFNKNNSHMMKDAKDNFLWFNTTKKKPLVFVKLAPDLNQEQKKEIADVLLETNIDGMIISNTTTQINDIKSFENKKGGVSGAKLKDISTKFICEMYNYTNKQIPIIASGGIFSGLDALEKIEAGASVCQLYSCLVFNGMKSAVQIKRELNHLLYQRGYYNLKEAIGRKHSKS
Calls of active or inactive are those of the source.
Each entry below lists one item and its recorded composite z-score value.

- compound: "CN(C)C(=O)[C@]1(Cc2ccccc2CN=[N+]=[N-])N=C(c2ccc(OCCCO)cc2)O[C@@H]1c1ccccc1CN=[N+]=[N-]"
  composite z-score: "0.587 (inactive)"
- compound: "COCCOC(=O)N1C(=O)[C@@]2(c3cc(C#CC4=CCCCC4)ccc31)[C@H](C(=O)N1CCc3cc(OC)c(OC)cc3C1)[C@H]1C(=O)O[C@H](c3ccccc3)[C@H](c3ccccc3)N1[C@@H]2c1ccc(OCCO)cc1"
  composite z-score: "-0.352 (inactive)"
- compound: "O=C1C2C=CC(C(O)C3CCCCC3)N(Nc3ccc([N+](=O)[O-])cc3)C2C(=O)N1c1ccccc1 (configuration not stated)"
  composite z-score: "1.14 (inactive)"
- compound: "CN(C)C(=O)[C@@]1(Cc2ccccc2)N=C(c2ccc(OCCCO)cc2)O[C@H]1c1ccccc1N=[N+]=[N-]"
  composite z-score: "0.2 (inactive)"
- compound: "CC(C)(C)OC(=O)CC[C@@]1(C(N)=O)N=C(c2ccc(OCCCO)cc2)O[C@@H]1c1ccccc1"
  composite z-score: "0.0187 (inactive)"
- compound: "COc1ccc(C(O)C2C=CC3C(=O)NC(=O)C3N2Nc2ccccn2)c2ccccc12 (configuration not stated)"
  composite z-score: "0.977 (inactive)"
- compound: "C=CCOC(=O)[C@H]1[C@@H]2C(=O)O[C@@H](c3ccccc3)[C@@H](c3ccccc3)N2[C@@H](c2ccc(OCCOC(=O)[C@@H]3C[C@@H]4C(=O)N5CCC[C@H]5C(=O)N4[C@@H]3c3cccc(OCCO)c3)cc2)[C@]12C(=O)Nc1ccccc12"
  composite z-score: "0.613 (inactive)"

====

This section presents compounds with their documented composite z-score values.
target: Focal adhesion kinase 1 (Homo sapiens) (UniProt Q05397); experiment: small-molecule microarray binders of FAK, primary screen, biochemical, 635/667 nm fluorescence, BSA, DTT (AID 1130); details: PTK2 binding, 635 nm fluorescence, higher = more signal;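 also: composite of spot emission at 667 nm and signal to noise over triplicate slides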
Sequence (Q05397 whole entry, looked up): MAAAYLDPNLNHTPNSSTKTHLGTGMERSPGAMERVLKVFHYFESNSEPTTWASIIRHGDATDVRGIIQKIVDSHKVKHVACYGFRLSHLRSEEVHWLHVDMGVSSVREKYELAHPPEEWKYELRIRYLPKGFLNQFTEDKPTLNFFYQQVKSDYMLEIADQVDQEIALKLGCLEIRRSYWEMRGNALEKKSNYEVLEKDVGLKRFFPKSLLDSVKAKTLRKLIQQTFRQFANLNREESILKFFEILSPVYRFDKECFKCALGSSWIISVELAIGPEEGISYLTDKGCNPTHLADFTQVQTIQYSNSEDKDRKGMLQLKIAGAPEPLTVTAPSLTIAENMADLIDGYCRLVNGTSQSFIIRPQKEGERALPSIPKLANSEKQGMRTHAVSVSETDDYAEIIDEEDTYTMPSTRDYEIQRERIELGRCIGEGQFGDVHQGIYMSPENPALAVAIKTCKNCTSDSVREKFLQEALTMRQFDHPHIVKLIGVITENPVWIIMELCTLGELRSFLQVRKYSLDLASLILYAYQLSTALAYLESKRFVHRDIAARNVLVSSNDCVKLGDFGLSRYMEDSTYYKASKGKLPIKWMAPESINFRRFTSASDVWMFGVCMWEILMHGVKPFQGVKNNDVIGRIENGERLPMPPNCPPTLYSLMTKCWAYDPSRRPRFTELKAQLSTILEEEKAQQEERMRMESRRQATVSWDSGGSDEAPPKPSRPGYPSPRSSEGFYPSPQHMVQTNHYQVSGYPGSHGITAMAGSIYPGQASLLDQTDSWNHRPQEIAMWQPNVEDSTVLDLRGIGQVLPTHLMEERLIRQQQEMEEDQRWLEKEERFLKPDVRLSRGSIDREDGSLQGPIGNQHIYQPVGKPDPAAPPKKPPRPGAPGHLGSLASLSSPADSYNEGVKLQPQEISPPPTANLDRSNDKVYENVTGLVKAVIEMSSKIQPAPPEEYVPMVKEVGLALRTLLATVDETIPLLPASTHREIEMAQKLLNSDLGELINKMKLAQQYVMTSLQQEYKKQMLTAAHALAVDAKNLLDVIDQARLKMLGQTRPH

- compound: "COC(=O)[C@@]1(Cc2ccccc2)[C@H]2c3cc(C(=O)N4CCCC4)n(Cc4cccc5ccccc45)c3C[C@H]2CN1C(=O)c1ccccc1"
  composite z-score: 0.971
- compound: "C[C@@]1([C@@H](NC(=O)c2ccccc2)c2ccc(-c3ccccc3)cc2)C[C@H]1C1CCCCC1"
  composite z-score: 0.327
- compound: "CC(C)(C)OC(=O)CC[C@]12N=C(c3ccc(OCCCO)cc3)O[C@H]1c1ccccc1N(CCS(=O)(=O)c1ccccc1)C2=O"
  composite z-score: 0.895
- compound: "COC(=O)[C@@]1(Cc2ccccc2)[C@H]2c3cc(C(=O)N4CCCC4)n(Cc4nc5ccccc5[nH]4)c3C[C@H]2CN1C(=O)c1ccccc1"
  composite z-score: 1.22
- compound: "CCCC=C(CCC)[C@@H](NS(=O)(=O)c1cccs1)c1ccc(C(=O)OC)cc1"
  composite z-score: 0.496
- compound: "C=CCNC(=O)[C@@H]1[C@H]2C(=O)O[C@H](c3ccccc3)[C@H](c3ccccc3)N2[C@H](c2ccccc2OCCO)[C@@]12C(=O)N(C(=O)OCCOC)c1ccc(C#CCNC(N)=O)cc12"
  composite z-score: 0.322
- compound: "CCCCN1CC=CC23O[C@@H]4C=CCOC(=O)[C@@H]4[C@H]2C(=O)N(CCCCCO)[C@@H]3C1=O (some centres undefined)"
  composite z-score: -0.204
- compound: "C=CCC(OC(C)=O)[C@@H]1[C@@H](N(Cc2ccc(-c3cccc(C(F)(F)F)c3)o2)C(=O)Cc2ccc(F)cc2)c2cc(OCCCO)ccc2N1C(=O)Cc1ccc(OC)cc1 (some centres undefined)"
  composite z-score: -0.572
- compound: "CCOC(=O)C[C@H]1[C@H](OC(=O)c2cc3ccccc3oc2=O)[C@@H](NC(=O)C2CCCCC2)c2cc(OCCCO)ccc2N1C(=O)c1ccccc1"
  composite z-score: 0.711
- compound: "CC(=O)NCCCC[C@@H]1NC(=O)[C@@H]2C[C@H](C(=O)NCCCCCCNC(=O)CS)[C@H](c3cccc(OCCO)c3)N2C1=O"
  composite z-score: 0.314
- compound: "COC(=O)[C@@]1(Cc2ccccc2)[C@H]2c3cc(C(=O)N(C)C)n(CCSCCO)c3C[C@H]2CN1C(=O)c1ccccc1"
  composite z-score: 0.342
- compound: "CCOC(=O)C1=CCC(c2ccc(C)cc2)N(S(=O)(=O)c2ccc(C)cc2)C1 (centres undefined)"
  composite z-score: 0.335
- compound: "CC(C)(C)OC(=O)CC[C@@]1(C(N)=O)N=C(c2ccc(OCCCO)cc2)O[C@@H]1c1ccccc1"
  composite z-score: 0.754
- compound: "CCCCC(=C=CC[C@@H](O)c1ccccc1OCCO)CCO"
  composite z-score: -0.206
- compound: "O=C1O[C@@H](c2ccccc2)[C@@H](c2ccccc2)N2[C@@H](c3ccccc3OCCO)[C@]3(C(=O)Nc4ccc(C#CC5=CCCCC5)cc43)[C@@H](C(=O)Nc3nc4ccccc4s3)[C@H]12"
  composite z-score: 0.0358
- compound: "[N-]=[N+]=NCc1ccccc1C[C@]1(C(=O)O)N=C(c2ccc(OCCCO)cc2)O[C@H]1c1ccccc1N=[N+]=[N-]"
  composite z-score: 0.532
- compound: "COCCCN1C(=O)[C@@]2(Cc3ccccc31)c1ccccc1C(=O)N(Cc1ccccc1C(F)(F)F)[C@H]2c1ccc(CO)cc1"
  composite z-score: 0.521
- compound: "C=CCN1C(=O)[C@@]2(O[C@@H](CCO)[C@H]([Si](C)(C)c3ccc(OC)cc3)[C@H]2C)c2cc(NC(=O)c3ccc(OC)cc3)ccc21"
  composite z-score: -0.0376
- compound: "O=C1O[C@H](c2ccccc2)[C@H](c2ccccc2)N2[C@H]1[C@@H](C(=O)Nc1nc3ccccc3s1)[C@]1(C(=O)Nc3ccc(C#CCCO)cc31)[C@H]2c1ccc(OCCO)cc1"
  composite z-score: 0.232
- compound: "Cc1ccc(S[C@]2(C(=O)NCCN3CCOCC3)CC(=O)N(Cc3ccccc3Cl)[C@@H]2c2ccc(CO)cc2)cc1"
  composite z-score: 0.155
- compound: "CCCCC=C[C@@H](NC(=O)Oc1cccc(C(F)(F)F)c1)c1ccccc1"
  composite z-score: 0.0053
- compound: "COc1cc2c(cc1O)C=[N+](Cc1cccc(OC(F)(F)F)c1)CC2"
  composite z-score: 0.185
- compound: "COc1ccc([Si](C)(C)[C@@H]2[C@@H](CC(=O)N3Cc4ccccc4C[C@H]3CO)O[C@]3(C(=O)N(C)c4c(Br)cc(C)cc43)[C@H]2C)cc1"
  composite z-score: 0.341
- compound: "CC(C)(C)OC(=O)CC[C@@]12N=C(c3ccc(OCCCO)cc3)O[C@@H]1c1ccccc1N(CCS(=O)(=O)c1ccccc1)C2=O"
  composite z-score: 0.412
- compound: "O=C1C[C@]2(c3ccc([N+](=O)[O-])cc3)C(=O)N(CCN3CCOCC3)c3cc(CO)ccc3[C@H]2N1C1CCCCC1"
  composite z-score: -0.617
- compound: "CCC(CC)C(O)C1C=CC2C(=O)N(C)C(=O)C2N1Nc1ccccc1 (centres undefined)"
  composite z-score: 0.43
- compound: "CC(C)C[C@@H]1NC(=O)[C@@H]2C[C@H](C(=O)NCCCCCN)[C@H](c3cccc(OCCO)c3)N2C1=O"
  composite z-score: 1.13
- compound: "O=C1OCCC/C=C\\[C@H]2OC34C=CCN(Cn5nnc6ccccc65)C(=O)[C@H]3N(CCCCCCO)C(=O)[C@@H]4C12 (some centres undefined)"
  composite z-score: 0.326
- compound: "COCCCNC(=O)[C@@]1(Cc2ccccc2)N=C(c2ccc(OCCCO)cc2)O[C@H]1c1ccccc1"
  composite z-score: 0.102
